System: HOP-92 NSCLC
Test description: NCI-60 one-dose screen, 48 h
Cond: 10 µM unless noted
This is part of a sample that, as a whole, favours compounds with a hit. Of some 83,000 tested, about 20% had one in any assay. Activity calls are given as the source filed them. Rule for the calls: active = growth percent below 10; inactive = the rest.
Outcomes you can answer with include only these: True for active, False for inactive

Use these answered entries as a reference point.
Molecule: O=C(CCN1CCOCC1)Nc1cccc(-n2cc(-c3ccncc3)c(-c3ccc(Cl)c(O)c3)n2)c1
Category label: False
--
Molecule: COc1ccc(-c2nn3c(-c4cc(F)c(Cl)cc4Cl)nnc3s2)cc1
Category label: False
--
Molecule: Cc1cccc(Cc2cnc(NC(=O)CCCOc3ccc(Cl)cc3)s2)c1
Category label: False
--
Molecule: CC1=C2[C@@H](CC1)[C@]1(C)O[C@@](C3CC3)(C[C@H]1OC(=O)CO)[C@H]2OC(=O)/C=C/c1ccccc1
Category label: False
--
Molecule: COC(=O)c1nc(-c2ccc(C)cc2)oc1Sc1ccc(C)cc1
Category label: False

Query: recorded result category for N=c1ccccn1CCO in this test
False

Query: recorded result category for CCCN1C(=O)/C(=c2\sc3n(c2=O)NC2C(N=3)N(CC)C(=O)N2CC)c2ccccc21 (configuration not stated) in this test
False

Query: recorded result category for Cc1ccc(C(=O)Nc2nc3c(s2)CN(Cc2ccccc2)CC3)cn1 in this test
False

Query: recorded result category for COc1cc(Nc2nc3ccccc3cc2C(=O)Nc2ccc(F)c(F)c2)cc(OC)c1OC in this test
True

Query: recorded result category for COC(=O)c1[nH]nc(OC)c1C1(C(C#N)c2nc3ccccc3s2)CCCc2ccccc21 (configuration not stated) in this test
False

Query: recorded result category for COc1c(F)cc(-n2c(C(=O)N3CC(F)C3)cc3cccnc32)cc1F in this test
False

This collection of values is drawn from PubChem BioAssay (NCI).
